Test system: ouabain induced arrhythmia (VT, VF, mortality)
Assay: Ouabain induced arrhythmia model in guinea pig
Format: in vivo
Conditions: 2.5 mg/kg; number of animals
experimentalEndpoint: deaths due to conduction block (60 min), actual incidence (value in parenthesis)

Below, 4 molecules whose answers are already recorded.
[[record]]
molecule = "CC(C)NCC(O)c1ccc(NS(C)(=O)=O)cc1 (stereo not drawn) [4:1 RATIO]"
reading = "(2)"

[[record]]
molecule = "CC(C)NCC(O)c1ccc(NS(C)(=O)=O)cc1 (stereo not drawn) [3:1 RATIO]"
reading = "(2)"

[[record]]
molecule = "CC(C)NCC(O)c1ccc(NS(C)(=O)=O)cc1 (stereo not drawn) [2.5:1 RATIO]"
reading = "(1)"

[[record]]
molecule = "CC(C)NCC(O)c1ccc(NS(C)(=O)=O)cc1 (stereo not drawn) [2:1 RATIO]"
reading = "(1)"


Report deaths due to conduction block (60 min), actual incidence (value in parenthesis) for every entry below.
1. CC(C)NCC(O)c1ccc(NS(C)(=O)=O)cc1 (stereo not drawn) [d-SOTALOL]
2. CC(C)NCC(O)c1ccc(NS(C)(=O)=O)cc1 (racemic) [dl-SOTALOL]

Response line:
["(3)", "(6)"]

---

Kindly supply the reported DEATHS DUE TO CONDUCTION BLOCK (60 MIN) Percentage values for the records listed here.
System: ouabain induced arrhythmia (VT, VF, mortality)
Experiment: Ouabain induced arrhythmia model in guinea pig
Type: in vivo
Settings: 2.5 mg/kg; percentage deaths out of total mortality

Example cases with answers are listed next.
[[record]]
compound = "CC(C)NCC(O)c1ccc(NS(C)(=O)=O)cc1 (stereo not drawn) [3:1 RATIO]"
reading = "100.0%"

[[record]]
compound = "CC(C)NCC(O)c1ccc(NS(C)(=O)=O)cc1 (stereo not drawn) [4:1 RATIO]"
reading = "100.0%"

[[record]]
compound = "CC(C)NCC(O)c1ccc(NS(C)(=O)=O)cc1 (stereo not drawn) [2.5:1 RATIO]"
reading = "100.0%"

[[record]]
compound = "CC(C)NCC(O)c1ccc(NS(C)(=O)=O)cc1 (racemic) [dl-SOTALOL]"
reading = "100.0%"


Record DEATHS DUE TO CONDUCTION BLOCK (60 MIN) Percentage per entry; entries follow.
1. CC(C)NCC(O)c1ccc(NS(C)(=O)=O)cc1 (stereo not drawn) [d-SOTALOL]
2. CC(C)NCC(O)c1ccc(NS(C)(=O)=O)cc1 (stereo not drawn) [2:1 RATIO]

Response line:
["50.0%", "100.0%"]

---

System: ouabain induced arrhythmia (VT, VF, mortality)
Assay: Ouabain induced arrhythmia model in guinea pig
Format: in vivo
Conditions: 0.5 mg/kg; number of animals of the group
Marks after values point to notes of the source that are not given here.
experimentalEndpoint: actual incidence of VT (value in parenthesis)

Use the examples below as a reference point.
[[record]]
compound = "CC(C)NCC(O)c1ccc(NS(C)(=O)=O)cc1 (stereo not drawn) [4:1 RATIO]"
reading = "(6)"

[[record]]
compound = "CC(C)NCC(O)c1ccc(NS(C)(=O)=O)cc1 (stereo not drawn) [d-SOTALOL]"
reading = "(7)"

[[record]]
compound = "CC(C)NCC(O)c1ccc(NS(C)(=O)=O)cc1 (stereo not drawn) [2.5:1 RATIO]"
reading = "(2)*"

[[record]]
compound = "CC(C)NCC(O)c1ccc(NS(C)(=O)=O)cc1 (racemic) [dl-SOTALOL]"
reading = "(2)*"

[[record]]
compound = "CC(C)NCC(O)c1ccc(NS(C)(=O)=O)cc1 (stereo not drawn) [3:1 RATIO]"
reading = "(3)*"


Moving on to another compound below.
Prompt line: Param item = CC(C)NCC(O)c1ccc(NS(C)(=O)=O)cc1 (stereo not drawn) [2:1 RATIO] ; retrieve measured actual incidence of VT (value in parenthesis).
Response line: (3)

---

For each entry below, report its DEATHS DUE TO CONDUCTION BLOCK (60 MIN) Percentage value.
System: ouabain induced arrhythmia (VT, VF, mortality)
Assay: Ouabain induced arrhythmia model in guinea pig
Type: in vivo
Conditions: 0.5 mg/kg; percentage deaths out of total mortality
Answers are plain numbers, in %.

[[record]]
compound = "CC(C)NCC(O)c1ccc(NS(C)(=O)=O)cc1 (racemic) [dl-SOTALOL]"
reading = 100.0

[[record]]
compound = "CC(C)NCC(O)c1ccc(NS(C)(=O)=O)cc1 (stereo not drawn) [4:1 RATIO]"
reading = 50.0

[[record]]
compound = "CC(C)NCC(O)c1ccc(NS(C)(=O)=O)cc1 (stereo not drawn) [d-SOTALOL]"
reading = 20.0

[[record]]
compound = "CC(C)NCC(O)c1ccc(NS(C)(=O)=O)cc1 (stereo not drawn) [3:1 RATIO]"
reading = 100.0

[[record]]
compound = "CC(C)NCC(O)c1ccc(NS(C)(=O)=O)cc1 (stereo not drawn) [2:1 RATIO]"
reading = 100.0


Prompt line: Record request: DEATHS DUE TO CONDUCTION BLOCK (60 MIN) Percentage value, item CC(C)NCC(O)c1ccc(NS(C)(=O)=O)cc1 (stereo not drawn) [2.5:1 RATIO]
Response line: 100.0

---

Tested on: ouabain induced arrhythmia (VT, VF, mortality)
Assay: Ouabain induced arrhythmia model in guinea pig
Type: in vivo
Conditions: 2.5 mg/kg; number of animals of the group
Marks after values point to notes of the source that are not given here.
experimentalEndpoint: actual incidence of VF (value in parenthesis)

Below are worked cases with known answers.
[[record]]
molecule = "CC(C)NCC(O)c1ccc(NS(C)(=O)=O)cc1 (stereo not drawn) [d-SOTALOL]"
reading = "(6)"

[[record]]
molecule = "CC(C)NCC(O)c1ccc(NS(C)(=O)=O)cc1 (stereo not drawn) [3:1 RATIO]"
reading = "(0)*"

[[record]]
molecule = "CC(C)NCC(O)c1ccc(NS(C)(=O)=O)cc1 (stereo not drawn) [2:1 RATIO]"
reading = "(0)*"

[[record]]
molecule = "CC(C)NCC(O)c1ccc(NS(C)(=O)=O)cc1 (racemic) [dl-SOTALOL]"
reading = "(0)*"

[[record]]
molecule = "CC(C)NCC(O)c1ccc(NS(C)(=O)=O)cc1 (stereo not drawn) [2.5:1 RATIO]"
reading = "(0)*"


Prompt line: Look up actual incidence of VF (value in parenthesis) for this molecule: CC(C)NCC(O)c1ccc(NS(C)(=O)=O)cc1 (stereo not drawn) [4:1 RATIO]
Response line: (2)

---

System: ouabain induced arrhythmia (VT, VF, mortality)
Experiment: Ouabain induced arrhythmia model in guinea pig
Format: in vivo
Conditions: 0.5 mg/kg; number of animals
experimentalEndpoint: deaths due to conduction block (60 min), actual incidence (value in parenthesis)

Sample records with deaths due to conduction block (60 min), actual incidence (value in parenthesis):
[[record]]
compound = "CC(C)NCC(O)c1ccc(NS(C)(=O)=O)cc1 (stereo not drawn) [3:1 RATIO]"
reading = "(3)"

[[record]]
compound = "CC(C)NCC(O)c1ccc(NS(C)(=O)=O)cc1 (stereo not drawn) [2:1 RATIO]"
reading = "(3)"

[[record]]
compound = "CC(C)NCC(O)c1ccc(NS(C)(=O)=O)cc1 (racemic) [dl-SOTALOL]"
reading = "(3)"

[[record]]
compound = "CC(C)NCC(O)c1ccc(NS(C)(=O)=O)cc1 (stereo not drawn) [2.5:1 RATIO]"
reading = "(2)"

[[record]]
compound = "CC(C)NCC(O)c1ccc(NS(C)(=O)=O)cc1 (stereo not drawn) [4:1 RATIO]"
reading = "(1)"


Prompt line: If you can, please state the reported deaths due to conduction block (60 min), actual incidence (value in parenthesis) value of CC(C)NCC(O)c1ccc(NS(C)(=O)=O)cc1 (stereo not drawn) [d-SOTALOL] .
Response line: (1)
